- Test system: Rattus norvegicus
- procedure-summary: Neurotoxicity inRattus norvegicus albino (rat) assessed as motor coordination at 200 mg/kg, ip after 30 min by […]
- Assay type: toxicity, organism-based
- Parameters: dose 200 mg/kg, route intraperitoneal
- experimental-conditions: in vivo, 0.5 h
readout: Activity

{"compound": "COc1cc(Br)cc(-c2noc(C3CCN(C)CC3)n2)c1OC", "Activity": "Non-toxic"}
{"compound": "COc1cc(Br)cc(-c2noc(C3CCCN(C)C3)n2)c1OC (stereo not drawn)", "Activity": "Non-toxic"}
{"compound": "COc1cc(Br)cc(-c2noc(C3CCCN3C)n2)c1OC (stereo not drawn)", "Activity": "Non-toxic"}
{"compound": "COc1cc(Br)cc(-c2noc(C3CCCN3Cc3ccccc3)n2)c1OC (stereo not drawn)", "Activity": "Toxic"}

// recorded Activity for COc1cc(Br)cc(-c2noc(C3CCN(Cc4ccccc4)CC3)n2)c1OC : Toxic

Form field Activity, entry COc1cc(Br)cc(-c2noc(C3CCCCN3Cc3ccccc3)n2)c1OC (stereo not drawn) : Toxic

// Activity lookup, compound = COc1cc(Br)cc(-c2noc(C3CCCCN3C)n2)c1OC (stereo not drawn) , result: Non-toxic

Recorded result, COc1cc(Br)cc(-c2noc(C3CCCN(Cc4ccccc4)C3)n2)c1OC (stereo not drawn) , Activity: Toxic
